- Test system: Cupriavidus necator H16 ΔphaC1 hadA-phaC1437
- Format: cell-based
- Test context: shake-flask, 30° C., determined from 20 mM down in steps of 5 mM until acceptable growth
A collection of compounds and their measured Concentration (maximum non-toxic concentration of hydroxyalkanoate)
Measurement label: Concentration (maximum non-toxic concentration of hydroxyalkanoate) (µM)

Compound: O=C(O)CCCO [4-hydroxybutanoic acid]
Experimental result: 20000

Compound: O=C(O)CCO [3-hydroxypropanoic acid]
Experimental result: 20000

Compound: O=C(O)/C=C/c1ccc(O)cc1
Experimental result: 5000

Compound: O=C(O)C(O)Cc1ccccc1 (stereo not drawn)
Experimental result: 10000

Compound: O=C(O)/C=C/c1ccc(O)c(O)c1
Experimental result: 5000

Compound: O=C(O)C(O)c1ccccc1 (stereo not drawn)
Experimental result: 5000

Compound: O=C(O)CCc1ccc(O)cc1
Experimental result: 5000

Compound: O=C(O)C(O)CCc1ccccc1 (stereo not drawn) [2-hydroxy-4-phenylbutanoic acid]
Experimental result: 15000
